The reported numbers originate from the MegaScale stability set (Tsuboyama et al. 2023).

B1: 1ZHC (parent)
chain: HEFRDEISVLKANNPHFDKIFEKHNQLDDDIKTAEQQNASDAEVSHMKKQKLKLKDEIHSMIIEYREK

- Variants of: B1
- protocol_description: folding stability dG (cDNA display proteolysis); higher = more stable
- condition_context: PBS, room temperature
quantity: folding stability dG (kcal/mol)
Give the value in kcal/mol but do not write kcal/mol after it.

folding stability dG measured on HEFRDEISQLKANNPHFDKIFEKHNQLDDDIKTAEQQNASDAEVSHMKKQKLKLKDEIHSMIIEYREK [V9Q] = 1.05
